biological target: IL-17A (agonist in the IL-17RA/IL17RC dimerization assay) (UniProt Q16552 24-155); assay: cell-based or functional assay
Sequence (Q16552 24-155 limits assumed): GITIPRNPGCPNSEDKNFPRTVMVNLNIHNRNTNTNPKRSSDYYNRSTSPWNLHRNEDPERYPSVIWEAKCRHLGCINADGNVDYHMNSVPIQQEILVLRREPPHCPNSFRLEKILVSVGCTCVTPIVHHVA
No end group written: not given here.
Overview of recorded IC50 in IL-17RA/IL7RC dimerization assay for various binders

Worked examples, 10 binders total:
* Ac-IHVTIPADLWDYINK-NH2 [peptide of SEQ ID NO: 211] | < 10 µM
* Ac-IHVTIPADLWDWANK-NH2 [peptide of SEQ ID NO: 214] | < 10 µM
* Ac-VMVTIPADLYEWIRR-NH2 [peptide of SEQ ID NO: 17] | < 0.4 µM
* Ac-IHVTIPADIWDWINK-NH2 [peptide of SEQ ID NO: 205] | < 10 µM
* Ac-VHVTIPADLYEWVRR-NH2 [peptide of SEQ ID NO: 118] | < 0.5 µM
* Ac-IHVTIPADLWDWLNK-NH2 [peptide of SEQ ID NO: 216] | < 10 µM
* Ac-VHVTIPAELWEWVRR-NH2 [peptide of SEQ ID NO: 111] | < 0.5 µM
* Ac-IHVTIPADLWDWVRR-NH2 [peptide of SEQ ID NO: 14] | < 0.4 µM
* Ac-VMVTIPADLYEWIEEVPGAG-NH2 [peptide of SEQ ID NO: 27] | < 1 µM
* Ac-IHVTIPADLWDWIQK-NH2 [peptide of SEQ ID NO: 220] | < 10 µM

[ask] I'd like to know its IC50 in IL-17RA/IL7RC dimerization assay. The binder in question is Ac-VHVQIPADFWEWFRR-NH2 [peptide of SEQ ID NO: 143]
[reply] < 0.5 µM

[ask] Lookup Ac-IHVTIPIDLWDWINK-NH2 [peptide of SEQ ID NO: 196]
[reply] < 10 µM

[ask] Lookup Ac-IHVTIPADLWNWINK-NH2 [peptide of SEQ ID NO: 208]
[reply] < 10 µM

[ask] Lookup IMVTIPADLYEWIEEQ-{N‑acetylglucosamine} [BIO-2]
[reply] < 1 µM
